Values were extracted from patent US20260125446A1.

Listing of entries alongside the reported Kd.
Target system: T1, mouse serum albumin (mouse, UniProt P07724 25-608)
T1 construct: Bought protein, immobilized on a CM5 chip by amine coupling; also called Mouse SA
Test summary: SPR (Biacore 8K), albumin immobilized on CM5 chip, 25 C, 1:1 kinetic fit
Measure: Kd (nM)

RLN Analog 6 (other, Single-chain fusion: RLN2 B chain (desB1) - L2 - RLN2 A chain - PGPQ-repeat L1 - VHH (C-terminal)) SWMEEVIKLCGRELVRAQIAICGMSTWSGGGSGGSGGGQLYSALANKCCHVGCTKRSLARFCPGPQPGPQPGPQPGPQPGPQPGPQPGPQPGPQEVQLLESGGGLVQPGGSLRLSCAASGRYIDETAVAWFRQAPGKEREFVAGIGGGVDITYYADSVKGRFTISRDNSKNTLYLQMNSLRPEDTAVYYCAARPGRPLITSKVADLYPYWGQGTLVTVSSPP : 12
RLN Analog 2 (other, Single-chain fusion: VHH - (PGPA)8 L1 - RLN2 A chain - L2 - RLN2 B chain (desB1)) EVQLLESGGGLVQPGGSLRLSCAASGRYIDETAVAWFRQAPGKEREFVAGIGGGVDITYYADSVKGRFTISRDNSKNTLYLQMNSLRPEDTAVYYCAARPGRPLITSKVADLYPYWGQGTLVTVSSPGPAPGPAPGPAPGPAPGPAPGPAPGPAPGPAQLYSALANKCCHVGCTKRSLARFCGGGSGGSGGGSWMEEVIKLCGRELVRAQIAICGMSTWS : 3.8
RLN Analog 8 (other, Single-chain fusion: VHH - (PGPQ)8 L1 - RLN2 B chain (desB1) - L2 - RLN2 A chain) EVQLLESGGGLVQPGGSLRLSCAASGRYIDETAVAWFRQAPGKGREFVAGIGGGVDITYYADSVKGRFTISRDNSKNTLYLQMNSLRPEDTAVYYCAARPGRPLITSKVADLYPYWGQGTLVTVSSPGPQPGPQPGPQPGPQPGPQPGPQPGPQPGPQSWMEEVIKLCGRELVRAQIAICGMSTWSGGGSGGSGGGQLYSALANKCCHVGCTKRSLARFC : 1.8
